Recorded measurements of GI50, one per entry
test system: BT-549; assay: Growth inhibition of human BT549 cells after 48 hrs by sulforhodamine B assay; type: functional; details: BT-549, 48 h
observation.type: GI50 (µM)

compound.string | data.value
COc1cc(OC)cc(Oc2nc3cc(N)cc(N)c3nc2-c2ccccc2)c1 | 1.48
Nc1cc(N)c2nc(-c3ccccc3)c(Oc3ccc(F)cc3)nc2c1 | 15.1
Nc1cc(N)c2nc(-c3ccccc3)c(Sc3ccc(F)cc3)nc2c1 | 21.9
COc1ccc(CNc2nc3cc(N)cc(N)c3nc2-c2ccccc2)cc1OC | 13.5

====

test system: MDA-MB-231; assay: Growth inhibition of human MDA-MB-231 cells after 48 hrs by sulforhodamine B assay; assay type: functional; conditions: MDA-MB-231, 48 h, read-out: pTGI (converted)
Just a reminder that ties go to not met: only TGI strictly below 30 µM counts as met.

compound.string | assay.target | category
COc1ccc(Oc2nc3cc(N)cc(N)c3nc2-c2ccccc2)cc1 | MDA-MB-231 | not met
Nc1cc(N)c2nc(-c3ccccc3)c(NCc3ccc(F)cc3)nc2c1 | MDA-MB-231 | met
COc1ccc(Sc2nc3cc(N)cc(N)c3nc2-c2ccccc2)cc1 | MDA-MB-231 | not met
COc1cc(CNc2nc3cc(N)cc(N)c3nc2-c2ccccc2)cc(OC)c1OC | MDA-MB-231 | met
Nc1cc(N)c2nc(-c3ccccc3)c(Sc3ccc(F)cc3)nc2c1 | MDA-MB-231 | not met
COc1cc(OC)cc(Oc2nc3cc(N)cc(N)c3nc2-c2ccccc2)c1 | MDA-MB-231 | met
Nc1cc(N)c2nc(-c3ccccc3)c(Sc3ccc(Cl)c(Cl)c3)nc2c1 | MDA-MB-231 | not met
Nc1cc(N)c2nc(-c3ccccc3)c(Oc3ccc(F)cc3)nc2c1 | MDA-MB-231 | met
Nc1cc(N)c2nc(-c3ccccc3)c(NCc3ccc(Cl)c(Cl)c3)nc2c1 | MDA-MB-231 | met
